- target.system: plasma purified human complement protein C3 (human) (UniProt P01024)
- Sequence (P01024 23-667, chain 1 of 2): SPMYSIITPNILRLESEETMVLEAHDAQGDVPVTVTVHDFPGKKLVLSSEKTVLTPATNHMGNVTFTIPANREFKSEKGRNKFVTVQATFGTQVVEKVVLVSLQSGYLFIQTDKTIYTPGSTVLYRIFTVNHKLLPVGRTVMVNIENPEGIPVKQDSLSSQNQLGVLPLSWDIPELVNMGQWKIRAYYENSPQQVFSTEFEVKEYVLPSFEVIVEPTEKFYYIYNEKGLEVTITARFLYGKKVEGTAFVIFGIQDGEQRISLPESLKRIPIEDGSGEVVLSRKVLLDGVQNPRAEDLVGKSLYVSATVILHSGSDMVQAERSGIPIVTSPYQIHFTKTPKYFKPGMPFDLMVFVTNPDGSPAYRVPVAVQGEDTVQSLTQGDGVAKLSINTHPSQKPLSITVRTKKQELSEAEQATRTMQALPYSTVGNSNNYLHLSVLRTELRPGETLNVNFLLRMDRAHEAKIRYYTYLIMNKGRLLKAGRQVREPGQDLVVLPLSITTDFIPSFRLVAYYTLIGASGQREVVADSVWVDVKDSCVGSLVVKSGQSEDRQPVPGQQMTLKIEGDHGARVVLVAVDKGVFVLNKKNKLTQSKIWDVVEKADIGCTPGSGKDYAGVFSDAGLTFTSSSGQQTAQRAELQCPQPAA
- Sequence (P01024 672-1663, chain 2 of 2): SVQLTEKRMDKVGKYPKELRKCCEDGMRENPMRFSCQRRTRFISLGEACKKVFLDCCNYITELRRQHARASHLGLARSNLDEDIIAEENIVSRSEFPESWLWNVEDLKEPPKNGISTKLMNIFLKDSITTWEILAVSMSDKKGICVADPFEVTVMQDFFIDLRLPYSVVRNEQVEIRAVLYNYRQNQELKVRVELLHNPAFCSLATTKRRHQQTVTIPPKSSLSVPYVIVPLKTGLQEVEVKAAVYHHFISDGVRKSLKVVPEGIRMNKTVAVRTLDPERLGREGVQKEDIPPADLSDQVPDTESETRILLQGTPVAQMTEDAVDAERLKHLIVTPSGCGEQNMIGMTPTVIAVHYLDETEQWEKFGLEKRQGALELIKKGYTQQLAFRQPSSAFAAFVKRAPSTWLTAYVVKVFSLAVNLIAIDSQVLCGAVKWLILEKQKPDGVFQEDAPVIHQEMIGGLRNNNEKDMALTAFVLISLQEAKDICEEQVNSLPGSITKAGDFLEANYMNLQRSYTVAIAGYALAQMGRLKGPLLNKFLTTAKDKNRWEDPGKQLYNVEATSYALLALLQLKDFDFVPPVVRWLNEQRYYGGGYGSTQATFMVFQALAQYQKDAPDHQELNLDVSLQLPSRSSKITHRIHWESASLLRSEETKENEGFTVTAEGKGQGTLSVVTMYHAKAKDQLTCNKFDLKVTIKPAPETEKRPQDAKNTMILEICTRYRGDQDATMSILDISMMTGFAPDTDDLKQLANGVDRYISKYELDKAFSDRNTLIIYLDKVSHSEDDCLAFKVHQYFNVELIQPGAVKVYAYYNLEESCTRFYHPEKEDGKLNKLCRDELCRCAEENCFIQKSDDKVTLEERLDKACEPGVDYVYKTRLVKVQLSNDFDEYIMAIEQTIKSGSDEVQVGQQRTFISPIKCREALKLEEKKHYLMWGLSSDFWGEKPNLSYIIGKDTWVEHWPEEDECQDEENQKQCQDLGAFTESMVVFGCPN
- test.summary: cell-based or functional assay
Sorting guide: entries reporting EC50 of hC3 cleavage beneath 50 nM go in the 1.0 pile, the rest go in the 0.0 pile.

{"binder": "MTSP-1 Q38R/I41S/D60bH/F60eI/ins97aE/F97T/T98G/F99L/C122S/Q175L/Q192E (enzyme) VVGGTDADEGEWPWQVSLHALGRGHSCGASLISPNWLVSAAHCYIDHRGIRYSDPTQWTAFLGLHDQSQRSAPGVQERRLKRIISHPFFNDTEGLDYDIALLELEKPAEYSSMVRPISLPDASHVFPAGKAIWVTGWGHTQYGGTGALILQKGEIRVINQTTCENLLPQLITPRMMCVGFLSGGVDSCEGDSGGPLSSVEADGRIFQAGVVSWGDGCAQRNKPGVYTRLPLFRDWIKENTGV", "category.label": 1.0}
{"binder": "MTSP-1 H40K/I41M/F97D/F99L/C122S/Q175M/Q192D/D217N/K224R (enzyme) VVGGTDADEGEWPWQVSLHALGQGKMCGASLISPNWLVSAAHCYIDDRGFRYSDPTQWTAFLGLHDQSQRSAPGVQERRLKRIISHPFFNDDTLDYDIALLELEKPAEYSSMVRPISLPDASHVFPAGKAIWVTGWGHTQYGGTGALILQKGEIRVINQTTCENLLPQMITPRMMCVGFLSGGVDSCDGDSGGPLSSVEADGRIFQAGVVSWGNGCAQRNRPGVYTRLPLFRDWIKENTGV", "category.label": 1.0}
{"binder": "MTSP-1 ins97aE/F97T/T98G/F99L/C122S/Q175L/Q192E/Q209L (enzyme) VVGGTDADEGEWPWQVSLHALGQGHICGASLISPNWLVSAAHCYIDDRGFRYSDPTQWTAFLGLHDQSQRSAPGVQERRLKRIISHPFFNDTEGLDYDIALLELEKPAEYSSMVRPISLPDASHVFPAGKAIWVTGWGHTQYGGTGALILQKGEIRVINQTTCENLLPQLITPRMMCVGFLSGGVDSCEGDSGGPLSSVEADGRIFLAGVVSWGDGCAQRNKPGVYTRLPLFRDWIKENTGV", "category.label": 0.0}
{"binder": "MTSP-1 Q38H/I41S/D96K/F97G/ins97aV/T98P/F99L/C122S/Q192D (enzyme) VVGGTDADEGEWPWQVSLHALGHGHSCGASLISPNWLVSAAHCYIDDRGFRYSDPTQWTAFLGLHDQSQRSAPGVQERRLKRIISHPFFNKGVPLDYDIALLELEKPAEYSSMVRPISLPDASHVFPAGKAIWVTGWGHTQYGGTGALILQKGEIRVINQTTCENLLPQQITPRMMCVGFLSGGVDSCDGDSGGPLSSVEADGRIFQAGVVSWGDGCAQRNKPGVYTRLPLFRDWIKENTGV", "category.label": 0.0}
{"binder": "MTSP-1 I41R/F97T/ins97aE/T98G/F99L/C122S/G151D/Q175I/Q192E (enzyme) VVGGTDADEGEWPWQVSLHALGQGHRCGASLISPNWLVSAAHCYIDDRGFRYSDPTQWTAFLGLHDQSQRSAPGVQERRLKRIISHPFFNDTEGLDYDIALLELEKPAEYSSMVRPISLPDASHVFPAGKAIWVTGWGHTQYGGTDALILQKGEIRVINQTTCENLLPQIITPRMMCVGFLSGGVDSCEGDSGGPLSSVEADGRIFQAGVVSWGDGCAQRNKPGVYTRLPLFRDWIKENTGV", "category.label": 0.0}
{"binder": "MTSP-1 I41S/D60bS/D96V/ins97aV/F97D/T98P/F99L/C122S/Q192G/F208L/D217N (enzyme) VVGGTDADEGEWPWQVSLHALGQGHSCGASLISPNWLVSAAHCYIDSRGFRYSDPTQWTAFLGLHDQSQRSAPGVQERRLKRIISHPFFNVDVPLDYDIALLELEKPAEYSSMVRPISLPDASHVFPAGKAIWVTGWGHTQYGGTGALILQKGEIRVINQTTCENLLPQQITPRMMCVGFLSGGVDSCGGDSGGPLSSVEADGRILQAGVVSWGNGCAQRNKPGVYTRLPLFRDWIKENTGV", "category.label": 0.0}

Origin of the recorded values: patent US20240018502A1
